test: Cell Viability - HUV-EC-C (AID 542); conditions: HUV-EC-C endothelial cell viability, qHTS; series mostly up to 92.2 µM;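 also: cells exposed to compound for 40 hours; nearly all actives have a fitted effect of over 35% in size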
Inconclusive results are not listed. Calls of active or inactive are those of the source. Calls follow the shape of the dose curve; as a rule, active = well fitted cell-killing curve with a large enough effect; inconclusive = small, poorly fitted or top-dose-only effect, or effect the other way; inactive = flat fitted curve, though single readings scatter.
Labels: active, inactive

# Test Smiles, Group
records = [
    ("CC(=O)Oc1ccc(C(c2ccc(OC(C)=O)cc2)c2ccccn2)cc1", "inactive"),
    ("Oc1ccc(O)cc1", "active"),
    ("O=c1ccc2ccccc2o1", "inactive"),
]

* * *

experiment: qHTS of pediatric cancer cell lines to identify multiple opportunities for drug repurposing: Primary screen for NB-EBc1 cells (AID 1347095); details: NB-EBc1 neuroblastoma viability, CellTiter-Glo luminescence, 48 h; series mostly up to 46 µM
Inconclusive results are not listed. Activity calls are given as the source filed them. Calls follow the shape of the dose curve; as a rule, active = well fitted cell-killing curve with a large enough effect; inconclusive = small, poorly fitted or top-dose-only effect; inactive = no such curve, though single readings can be large or run the other way.
Labels: True for active, False for inactive

# Molecule, Group
rows = [
    ("CC(=O)OCC(=O)[C@@]1(O)[C@H](C)C[C@H]2[C@@H]3CCC4=CC(=O)C=C[C@]4(C)[C@@]3(F)[C@@H](O)C[C@@]21C", "False"),
    ("C[C@]12CC[C@H]3[C@@H](CCC4=CC(=O)CC[C@@]43C)[C@@H]1CC[C@@H]2C(=O)CO", "False"),
    ("Cc1c(C)n(CCN(C)C)c2ccc(C(=O)OCCN(C)C)cc12", "False"),
    ("NCCC(O)(P(=O)(O)O)P(=O)(O)O", "False"),
    ("C[C@@H](CN(C)C)CN1c2ccccc2Sc2ccccc21", "False"),
    ("CC(=O)O[C@]1(C(C)=O)CC[C@H]2[C@@H]3C[C@H](C)C4=CC(=O)CC[C@]4(C)[C@H]3CC[C@@]21C", "False"),
    ("c1ccc(CNCCNCc2ccccc2)cc1", "False"),
    ("OC[C@@H](O)[C@@H](O[C@@H]1O[C@H](CO)[C@H](O)[C@H](O)[C@H]1O)[C@H](O)[C@@H](O)CO", "False"),
    ("C=CCc1ccc(O)c(OC)c1", "False"),
    ("CCCCCCCCCCCCCCNCCO", "False"),
    ("CNC(=O)CN(CCN(CCN(CC(=O)[O-])CC(=O)NC)CC(=O)[O-])CC(=O)[O-].O.[Gd+3]", "False"),
    ("CN1CCN(CCCN2c3ccccc3Sc3ccc(S(=O)(=O)N(C)C)cc32)CC1", "False"),
    ("O=c1[nH]c(=O)n([C@H]2CCCO2)cc1F", "False"),
    ("NCCCC[C@H](N[C@@H](CCc1ccccc1)C(=O)O)C(=O)N1CCC[C@H]1C(=O)O", "False"),
    ("CN(C)CC/C=C1/c2ccccc2COc2ccc(CC(=O)O)cc21", "False"),
    ("CCOC(=O)OC(C)OC1=C(C(=O)Nc2ccccn2)N(C)S(=O)(=O)c2ccccc21 (stereo unspecified)", "False"),
    ("CC1(C)O[C@@H]2C[C@H]3[C@@H]4C[C@H](F)C5=CC(=O)CC[C@]5(C)[C@H]4[C@@H](O)C[C@]3(C)[C@]2(C(=O)CO)O1", "False"),
    ("COc1cccc2c1C(=O)c1c(O)c3c(c(O)c1C2=O)C[C@@](O)(C(=O)CO)C[C@@H]3O[C@H]1C[C@H](N)[C@H](O)[C@H](C)O1", "True"),
    ("CC(O)(P(=O)(O)O)P(=O)(O)O", "False"),
    ("NC(CS)C(=O)O (stereo unspecified)", "False"),
    ("C[C@H](O)C(=O)Nc1c(I)c(C(=O)NC(CO)CO)c(I)c(C(=O)NC(CO)CO)c1I", "False"),
]

* * *

system: CASKI; test: Primary qHTS to identify gynecologic anti-cancer compounds using libraries of approved drugs and bioactive compounds (AID 1345084); settings: Gynecologic cancer cell panel viability, ATPlite luminescence, 48 h; series mostly up to 57.5 µM; also: nearly all actives have a fitted effect of over 55% in size
Inconclusive results are not listed. Activity calls are given as the source filed them. Calls follow the shape of the dose curve; as a rule, active = well fitted cell-killing curve with a large enough effect; inconclusive = small, poorly fitted or top-dose-only effect, or effect the other way; inactive = flat fitted curve, though single readings scatter.
Labels: true for active, false for inactive

# Compound, Group
data = [
    ("Cc1ccc(O)c2ncccc12", "false"),
    ("O=C1OC(c2ccc(O)cc2)(c2ccc(O)cc2)c2ccccc21", "false"),
    ("O=C(OCCOCCO)c1ccccc1Nc1cccc(C(F)(F)F)c1", "false"),
    ("CNCC[C@@H](Oc1ccccc1C)c1ccccc1", "false"),
    ("COc1cc(OC)cc(OC)c1", "false"),
    ("CN(C(=O)CN(CCO)CC(=O)N(C)C(C)(C)Cc1ccccc1)C(C)(C)Cc1ccccc1", "false"),
    ("CC(=O)OCC(=O)[C@@]12N=C(C)O[C@@H]1C[C@H]1[C@@H]3CCC4=CC(=O)C=C[C@]4(C)[C@H]3[C@@H](O)C[C@@]12C", "false"),
    ("CC(=O)OCC(=O)[C@@]1(O)[C@H](C)C[C@H]2[C@@H]3CCC4=CC(=O)C=C[C@]4(C)[C@@]3(F)[C@@H](O)C[C@@]21C", "false"),
    ("C[C@H]1C[C@H]2[C@@H]3CCC4=CC(=O)C=C[C@]4(C)[C@@]3(Cl)[C@@H](O)C[C@]2(C)[C@@]1(O)C(=O)CO", "false"),
    ("CCCCCCCCCCCCCCCC[N+](C)(C)CC", "true"),
    ("C=C1C(=C/C=C2\\CCC[C@]3(C)[C@@H]([C@H](C)/C=C/[C@@H](O)C4CC4)CC[C@@H]23)C[C@@H](O)C[C@@H]1O", "false"),
    ("COc1cc2c(cc1OC)C(C(C(=O)N(CCc1ccc(OC)c(OC)c1OC)CCc1ccc(OC)c(OC)c1OC)c1ccccc1)=NCC2 (centres undefined)", "false"),
    ("CC[N+](CC)(CCNC(=O)C(=O)NCC[N+](CC)(CC)Cc1ccccc1Cl)Cc1ccccc1Cl", "false"),
    ("C[C@]12CCC(=O)C=C1[C@@H]1C[C@@H]1[C@H]1[C@@H]3[C@@H]4C[C@@H]4[C@@]4(CCC(=O)O4)[C@@]3(C)CC[C@@H]12", "false"),
    ("CCCCOc1ccc(OCCCN2CCOCC2)cc1", "false"),
    ("COc1cc(/C=C/C(=O)O[C@H]2CC[C@]34C[C@]35CC[C@]3(C)[C@@H]([C@H](C)CCC=C(C)C)CC[C@@]3(C)[C@@H]5CC[C@H]4C2(C)C)ccc1O", "false"),
    ("O=C1OC2(c3ccc(O)cc3Oc3cc(O)ccc32)c2ccccc21", "false"),
    ("CC1=C(C(=O)OC(C)C)C(c2cccc([N+](=O)[O-])c2)C(C(=O)OC2CN(C(c3ccccc3)c3ccccc3)C2)=C(N)N1 (centres undefined)", "false"),
    ("Cc1cc(O)c(C(C)C)cc1Cl", "false"),
]

* * *

assay: qHTS assay for small molecule agonists of retinoid X receptor alpha signaling (AID 588544); settings: HEK293T RXRa-UAS-bla, beta-lactamase reporter, 18 h; 530 nm emission
Records with an inconclusive call do not appear.
Measured max response, listed per entry.

# Test Smiles, Value Units, max response
data = [
    ("CN(C)/N=N/c1nc[nH]c1C(N)=O", "%", 27.5),
    ("CC/C(=C(/CC)c1ccc(O)cc1)c1ccc(O)cc1", "%", -0.375),
    ("Nc1ccc(C(=O)O)cc1", "%", 0.621),
    ("CC(O)(P(=O)(O)O)P(=O)(O)O", "%", -19.3),
    ("Cc1cc(=O)n(-c2ccccc2)n1C", "%", -30.7),
    ("C[C@]12CC[C@@H]3c4ccc(O)cc4CC[C@H]3[C@@H]1CC[C@@H]2O", "%", 6.82),
]

* * *

tested on: SKOV3; assay: Primary qHTS to identify gynecologic anti-cancer compounds using libraries of approved drugs and bioactive compounds (AID 1345084); conditions: Gynecologic cancer cell panel viability, ATPlite luminescence, 48 h; series mostly up to 57.5 µM; also: nearly all actives have a fitted effect of over 55% in size
Results filed as inconclusive are left out. Activity calls are given as the source filed them. Calls come from the whole dose curve; as a rule, active = well fitted cell-killing curve with a large enough effect; inconclusive = small, poorly fitted or top-dose-only effect, or effect the other way; inactive = flat fitted curve, though single readings scatter.
Labels: 1 (yes) for active, 0 (no) for inactive

# Molecule, Group
rows = [
    ("OC[C@H]1O[C@@H](n2cnc3c(=S)nc[nH]c32)[C@H](O)[C@@H]1O", "0 (no)"),
    ("CCOC(=O)c1cccc(N)c1", "0 (no)"),
    ("CCCOC(C(=O)OC1CCN(C)CC1)(c1ccccc1)c1ccccc1", "0 (no)"),
    ("CC(=O)Oc1ccc(C(c2ccc(OC(C)=O)cc2)c2ccccn2)cc1", "0 (no)"),
    ("C[C@H](CCC(=O)O)[C@H]1CC[C@H]2[C@@H]3C(=O)C[C@@H]4CC(=O)CC[C@]4(C)[C@H]3CC(=O)[C@]12C", "0 (no)"),
    ("CC(=O)Nc1c(I)cc(I)c(C(=O)O)c1I", "0 (no)"),
    ("CN(C)C(=S)SC(=S)N(C)C", "1 (yes)"),
    ("CN(C(=O)CN(CCO)CC(=O)N(C)C(C)(C)Cc1ccccc1)C(C)(C)Cc1ccccc1", "0 (no)"),
    ("O=c1[nH]c(=O)n([C@H]2C[C@H](O)[C@@H](CO)O2)cc1C(F)(F)F", "0 (no)"),
    ("OC(CCN1CCCCC1)(c1ccccc1)c1ccccc1", "0 (no)"),
    ("O=C(O)CCCCC(=O)O", "0 (no)"),
    ("C=C(CC)C(=O)c1ccc(OCC(=O)O)c(Cl)c1Cl", "0 (no)"),
    ("COc1cc2c(cc1OC)C(C(C(=O)N(CCc1ccc(OC)c(OC)c1OC)CCc1ccc(OC)c(OC)c1OC)c1ccccc1)=NCC2 (stereo unspecified)", "0 (no)"),
    ("CCCC(=O)O[C@]1(C(=O)CO)CC[C@H]2[C@@H]3CCC4=CC(=O)CC[C@]4(C)[C@H]3[C@@H](O)C[C@@]21C", "0 (no)"),
    ("C#C[C@]1(OC(C)=O)CC[C@H]2[C@@H]3CCC4=C[C@@H](OC(C)=O)CC[C@@H]4[C@H]3CC[C@@]21C", "0 (no)"),
    ("CC(=O)CC(c1ccc([N+](=O)[O-])cc1)c1c(O)c2ccccc2oc1=O (stereo unspecified)", "0 (no)"),
    ("CN(C)CCOc1ccccc1Cc1ccccc1", "0 (no)"),
    ("Cc1ccc(Nc2c(F)cccc2Cl)c(CC(=O)O)c1", "0 (no)"),
    ("COc1ccc(OC)c(C(O)CNC(=O)CN)c1 (stereo unspecified)", "0 (no)"),
    ("COC(=O)C1=C(C)NC(C)=C(C(=O)O[C@@H]2CCCN(Cc3ccccc3)C2)[C@@H]1c1cccc([N+](=O)[O-])c1", "0 (no)"),
    ("O=C(Nc1ccc(Oc2ccc(Cl)cc2)c(Cl)c1)c1cc(I)cc(I)c1O", "0 (no)"),
]
